Test system: IL-17A-induced G-CSF production in human normal keratinocyte (NHK)
Test: NHK Assay: IL-17A-induced G-CSF production in human normal keratinocytes
Format: cell-based
Settings: adult normal human keratinocytes, IL-17A 5 ng/mL, 24 h, simple average if tested more than once
metric_name: IC50 (nM)

- compound: "Cc1nonc1C(=O)N[C@H](c1cn2ncc([C@H](NC(=O)C(F)C3CC3)C3CC3)cc2n1)C1CCC(F)(F)CC1 (single isomer, unassigned) [Example 332]"
  value_observed: 12000
- compound: "CC(n1nccc1C(=O)N[C@H](c1cn2ncc([C@H](NC(=O)CCC(F)(F)F)C3CC3)cc2n1)C1CCC(F)(F)CC1)C(F)(F)F (single isomer, unassigned) [Example 116]"
  value_observed: 210
- compound: "Cc1nonc1C(=O)N[C@H](c1cn2ncc(C(NC(=O)CC3CC(F)(F)C3)C3CCC3)cc2n1)C1CCC(F)(F)CC1 (single isomer, unassigned) [Example 493]"
  value_observed: 120
- compound: "CC(C)c1oncc1C(=O)N[C@H](c1cn2ncc([C@H](NC(=O)CCC(F)(F)F)C3CC3)cc2n1)C1CCC(F)(F)CC1 [Example 482]"
  value_observed: 76
- compound: "Cc1nonc1C(=O)N[C@H](c1cn2ncc(C(NC(=O)CCC(F)(F)F)C(C)C)cc2n1)C1CCC(F)(F)CC1 (single isomer, unassigned) [Example 504]"
  value_observed: 93

---

Consider the following molecules and their measured pIC50 readings.
Target: IL-17A(FLAG-Tagged): IL-17RA(His-Tagged) (Homo sapiens, UniProt Q16552, K93Q)
Sequence (Q16552 with tags, fused parts or gaps K93Q): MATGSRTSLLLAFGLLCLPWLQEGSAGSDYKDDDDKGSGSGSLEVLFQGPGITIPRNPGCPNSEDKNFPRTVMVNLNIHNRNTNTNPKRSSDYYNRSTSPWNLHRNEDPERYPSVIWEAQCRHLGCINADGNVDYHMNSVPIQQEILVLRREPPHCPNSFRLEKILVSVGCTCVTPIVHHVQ
Test: IL-17A(FLAG-Tagged): IL-17RA(His-Tagged) Binding Disruption Eu-HTRF Assay
Details: IL-17A/IL-17RA binding disruption, simple average if tested more than once
pIC50: −log10 of the molar value.

- molecule_smiles: "O=C(CCC(F)(F)F)N[C@@H](c1cnn2cc([C@@H](NC(=O)c3cc(OCC(F)F)ccn3)C3CCC(F)(F)CC3)nc2c1)C1CC1"
  system: "IL-17A(FLAG-Tagged): IL-17RA(His-Tagged) (Homo sapiens, UniProt Q16552, K93Q)"
  pIC50: 6.52
- molecule_smiles: "CC(C)(OC[C@H](NC(=O)c1nonc1C1CC1)c1cn2ncc([C@H](NC(=O)CC3CC(F)(F)C3)C3CC3)cc2n1)C(F)(F)F"
  system: "IL-17A(FLAG-Tagged): IL-17RA(His-Tagged) (Homo sapiens, UniProt Q16552, K93Q)"
  pIC50: 7.77
- molecule_smiles: "Cc1nocc1C(=O)N[C@H](c1cn2ncc([C@H](NC(=O)CCC(F)(F)F)C3CC3)cc2n1)C1CCC(F)(F)CC1"
  system: "IL-17A(FLAG-Tagged): IL-17RA(His-Tagged) (Homo sapiens, UniProt Q16552, K93Q)"
  pIC50: 7.08

---

Molecular target: IL-17A(FLAG-Tagged): IL-17RA(His-Tagged) (Homo sapiens, UniProt Q16552, K93Q)
Assay: IL-17A(FLAG-Tagged): IL-17RA(His-Tagged) Binding Disruption Eu-HTRF Assay
Details: IL-17A/IL-17RA binding disruption, simple average if tested more than once
pIC50: −log10 of the molar value.
Everything with pIC50 lower than 7 is not satisfied; everything else, including exactly 7, is satisfied.

- compound: "O=C(CCC(F)(F)F)N[C@@H](c1cnn2cc([C@@H](NC(=O)c3ccncc3)C3CCC(F)(F)CC3)nc2c1)C1CC1"
  assigned_category: "not satisfied"
- compound: "O=C(CCC(F)(F)F)N[C@@H](c1cnn2cc([C@@H](NC(=O)c3ccccn3)C3CCC(F)(F)CC3)nc2c1)C1CC1"
  assigned_category: "not satisfied"
- compound: "O=C(CCC(F)(F)F)N[C@@H](c1cnn2cc([C@@H](NC(=O)c3cccc(C4CC4(F)F)c3)C3CCC(F)(F)CC3)nc2c1)C1CC1 (some centres unmarked)"
  assigned_category: "satisfied"
- compound: "O=C(CC1CC(F)(F)C1)N[C@@H](c1cnn2cc([C@@H](NC(=O)c3nonc3C3CC3)C3CCC(F)(F)CC3)nc2c1)C1CCOCC1 (relative stereo)"
  assigned_category: "satisfied"
- compound: "CC(C)n1nccc1C(=O)N[C@H](c1cn2ncc([C@H](NC(=O)COC(F)F)C3CC3)cc2n1)C1CCC(F)(F)CC1"
  assigned_category: "not satisfied"
- compound: "CC(C)Oc1cncc(C(=O)N[C@H](c2cn3ncc([C@H](NC(=O)CCC(F)(F)F)C4CC4)cc3n2)C2CCC(F)(F)CC2)c1"
  assigned_category: "satisfied"
- compound: "Cc1nonc1C(=O)N[C@H](c1cn2ncc([C@H](NC(=O)[C@H]3CNC[C@@H]3C(F)(F)F)C3CC3)cc2n1)C1CCC(F)(F)CC1 (relative stereo)"
  assigned_category: "not satisfied"
- compound: "O=C(CCC(F)(F)F)N[C@@H](c1cnn2cc([C@@H](NC(=O)c3nocc3OCC(F)F)C3CCC(F)(F)CC3)nc2c1)C1CC1"
  assigned_category: "satisfied"
- compound: "CC(C)n1nccc1C(=O)N[C@H](c1cn2ncc(C(NC(=O)CC(C)(C)O)C3CC3)cc2n1)C1CCC(F)(F)CC1 (single isomer, unassigned) [Example 136]"
  assigned_category: "not satisfied"
- compound: "Cc1nonc1C(=O)N[C@@H](COC(C)(C)C)c1cn2ncc(C(NC(=O)CCC(F)(F)F)C3CC3)cc2n1 (single isomer, unassigned) [Example 314]"
  assigned_category: "not satisfied"
- compound: "Cc1nonc1C(=O)N[C@H](c1cn2ncc([C@H](NC(=O)C[C@H]3CC3(F)F)C3CC3)cc2n1)C1CCC(F)(F)CC1 (relative stereo)"
  assigned_category: "not satisfied"
- compound: "O=C(CCC(F)(F)F)NC(c1cnn2cc([C@@H](NC(=O)c3cnn(CCC(F)(F)F)n3)C3CCC(F)(F)CC3)nc2c1)C1CC1 (single isomer, unassigned) [Example 18]"
  assigned_category: "not satisfied"
- compound: "CC(C)C(NC(=O)CCC(F)(F)F)c1cnn2cc([C@@H](NC(=O)c3ccnn3C(C)C)C3CCC(F)(F)CC3)nc2c1 (single isomer, unassigned) [Example 154]"
  assigned_category: "not satisfied"

---

Consider the following compounds and their measured pIC50 readings.
Target: IL-17A(FLAG-Tagged): IL-17RA(His-Tagged) (Homo sapiens, UniProt Q16552, K93Q)
Test: IL-17A(FLAG-Tagged): IL-17RA(His-Tagged) Binding Disruption Eu-HTRF Assay
Conditions: IL-17A/IL-17RA binding disruption, simple average if tested more than once
pIC50: −log10 of the molar value.

- compound: "O=C(CCC(F)(F)F)N[C@@H](c1cnn2cc([C@@H](NC(=O)c3cccc(C(F)F)n3)C3CCC(F)(F)CC3)nc2c1)C1CC1 [Example 229]"
  pIC50: 5.92
- compound: "Cn1nnnc1C(=O)N[C@H](c1cn2ncc([C@H](NC(=O)CCC(F)(F)F)C3CC3)cc2n1)C1CCC(F)(F)CC1 [Example 468]"
  pIC50: 6.12
- compound: "[2H]C([2H])([2H])C([2H])([2H])n1nccc1C(=O)N[C@H](c1cn2ncc([C@H](CC)NC(=O)CC3CC(F)(F)C3)cc2n1)C1CCC(F)(F)CC1 (relative stereo) [Example 508]"
  pIC50: 5.92
- compound: "O=C(CCC(F)(F)F)N[C@@H](c1cnn2cc([C@@H](NC(=O)c3cnnn3CC3CC3)C3CCC(F)(F)CC3)nc2c1)C1CC1 [Example 48]"
  pIC50: 7.20
- compound: "CCc1ccnc(C(=O)N[C@H](c2cn3ncc([C@H](NC(=O)CCC(F)(F)F)C4CC4)cc3n2)C2CCC(F)(F)CC2)c1 [Example 453]"
  pIC50: 6.82
- compound: "N#CC12CC(Cn3nncc3C(=O)N[C@H](c3cn4ncc([C@H](NC(=O)CCC(F)(F)F)C5CC5)cc4n3)C3CCC(F)(F)CC3)(C1)C2 [Example 145]"
  pIC50: 6.19
- compound: "O=C(CCC(F)(F)F)N[C@@H](c1cnn2cc([C@@H](NC(=O)c3ccncc3F)C3CCC(F)(F)CC3)nc2c1)C1CC1 [Example 195]"
  pIC50: 6.24
- compound: "CC(C)(O)c1nonc1C(=O)N[C@H](c1cn2ncc([C@H](NC(=O)CC3CC(F)(F)C3)C3CC3)cc2n1)C1CCC(F)(F)CC1 [Example 410]"
  pIC50: 6.92
- compound: "O=C(CCC(F)(F)F)N[C@@H](c1cnn2cc([C@@H](NC(=O)c3cnnn3CCF)C3CCC(F)(F)CC3)nc2c1)C1CC1 [Example 105]"
  pIC50: 6.96
- compound: "Cc1nocc1C(=O)N[C@H](c1cn2ncc([C@H](NC(=O)CC3CC(F)(F)C3)C3CC3)cc2n1)C1CCC(F)(F)CC1 [Example 120]"
  pIC50: 7.32
- compound: "[2H]C([2H])([2H])C([2H])([2H])n1nccc1C(=O)N[C@H](c1cn2ncc(C(NC(=O)CC3CC(F)(F)C3)C3CCC3)cc2n1)C1CCC(F)(F)CC1 (single isomer, unassigned) [Example 496]"
  pIC50: 6.16
- compound: "O=C(CC12CC(F)(C1)C2)N[C@@H](c1cnn2cc([C@@H](NC(=O)c3nonc3C3CC3)C3CCC(F)(F)CC3)nc2c1)C1CC1 [Example 296]"
  pIC50: 7.66
